molecular target: tetanus neurotoxin (TeNT), authentic tetanus holotoxin (Clostridium tetani, UniProt P04958 2-1315); assay: GT1b-TeNT inhibition ELISA
Sequence (P04958 2-457 limits assumed, chain 1 of 2): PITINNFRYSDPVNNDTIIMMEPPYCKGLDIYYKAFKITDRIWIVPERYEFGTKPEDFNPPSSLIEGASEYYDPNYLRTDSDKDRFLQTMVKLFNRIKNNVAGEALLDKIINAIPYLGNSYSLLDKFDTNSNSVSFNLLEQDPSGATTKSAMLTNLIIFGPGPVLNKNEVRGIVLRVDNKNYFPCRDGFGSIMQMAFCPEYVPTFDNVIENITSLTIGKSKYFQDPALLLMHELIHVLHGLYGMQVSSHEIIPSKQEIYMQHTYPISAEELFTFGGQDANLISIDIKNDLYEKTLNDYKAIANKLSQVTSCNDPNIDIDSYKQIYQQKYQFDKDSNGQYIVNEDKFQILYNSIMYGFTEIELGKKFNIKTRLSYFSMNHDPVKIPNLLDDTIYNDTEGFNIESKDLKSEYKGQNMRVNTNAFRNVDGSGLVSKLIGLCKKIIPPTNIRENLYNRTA
Sequence (P04958 458-1315 limits assumed, chain 2 of 2): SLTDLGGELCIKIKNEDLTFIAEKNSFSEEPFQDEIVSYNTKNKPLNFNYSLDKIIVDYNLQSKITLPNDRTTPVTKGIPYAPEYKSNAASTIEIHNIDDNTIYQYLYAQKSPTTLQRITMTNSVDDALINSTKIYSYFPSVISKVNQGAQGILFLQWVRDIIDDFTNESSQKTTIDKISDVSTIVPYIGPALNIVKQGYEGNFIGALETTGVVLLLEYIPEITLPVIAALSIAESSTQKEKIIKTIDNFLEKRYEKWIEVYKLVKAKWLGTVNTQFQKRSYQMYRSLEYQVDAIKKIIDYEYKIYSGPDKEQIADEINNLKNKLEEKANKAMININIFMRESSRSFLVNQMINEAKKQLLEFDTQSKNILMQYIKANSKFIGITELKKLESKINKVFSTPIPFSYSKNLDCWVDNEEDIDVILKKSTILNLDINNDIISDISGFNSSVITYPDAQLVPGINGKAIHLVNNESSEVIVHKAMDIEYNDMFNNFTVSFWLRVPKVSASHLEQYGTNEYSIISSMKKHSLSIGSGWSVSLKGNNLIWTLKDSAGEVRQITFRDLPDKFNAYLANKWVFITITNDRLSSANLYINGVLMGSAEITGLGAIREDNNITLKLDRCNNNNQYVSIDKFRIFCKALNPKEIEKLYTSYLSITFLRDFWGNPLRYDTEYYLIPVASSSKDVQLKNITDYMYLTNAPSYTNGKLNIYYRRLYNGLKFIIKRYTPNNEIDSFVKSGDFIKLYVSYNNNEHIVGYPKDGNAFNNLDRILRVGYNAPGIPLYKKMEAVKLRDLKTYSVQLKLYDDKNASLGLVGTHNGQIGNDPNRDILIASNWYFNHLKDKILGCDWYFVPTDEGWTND
measurement label: minimal absorbance value (GT1b-TeNT inhibition) (A450)
Write the number in A450 without appending the unit.

Here's what some known entries look like.
binder	value
SVT15-3FW4M-GS2-SVA12M2-H6 (bispecific antibody) QVQLQESGGGLVQTGGSLRLSCRASGRAFANYHFGWFRQAPGKDREFVASISWKGGSTYYANFALGRFTSSVDRAESSVYLQMSGLTPEDTATYYCAAHDGGDWNYHTGMDYWGQGTQVTVSSGGGGSGGGSEVQLVESGGGLVQAGGSLRLSCAASGRTFSYYPMAWFRQAPGQEREFVAAIIGADTTYYADSLKGRFTISRDNAKNMVYLQMNSLKPEDTAVYYCAARNTYWSDVYYREGQYTNWGQGTQVTVSSHHHHHH	0.15
SVG13L (VHH) VHH: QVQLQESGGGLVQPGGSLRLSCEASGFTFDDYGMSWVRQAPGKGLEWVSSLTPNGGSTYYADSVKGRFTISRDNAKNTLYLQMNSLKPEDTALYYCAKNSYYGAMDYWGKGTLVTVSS	0.72

Enquiry: Indicate its recorded minimal absorbance value (GT1b-TeNT inhibition); the binder in question is SVT15-3FW4M-GS2-SVG06M4-H6 (bispecific antibody) QVQLQESGGGLVQTGGSLRLSCRASGRAFANYHFGWFRQAPGKDREFVASISWKGGSTYYANFALGRFTSSVDRAESSVYLQMSGLTPEDTATYYCAAHDGGDWNYHTGMDYWGQGTQVTVSSGGGGSGGGSEVQLVESGGALVQPGGSLRLSCAASGFPFSAYDMTWVRQAPGQGLEWVSTIHKSGGITTYADSVKGRFTISRDNAKNTLYLQMNNLESEDTAVYYCAKALRAHNSDYVGRNALGSWGQGTQVTVSSHHHHHH
Return: 0.12
